Target: PahS
Assay: SPR, PAHs injected over PahS sensor chip
Conditions: read-out: KD of PahS for PAH, 20°C
pKd: −log10 of the molar value.
readout-kind: pKd

>>> quantitative_readout("c1cc2ccc3cccc4ccc(c1)c2c34")
7.68
>>> quantitative_readout("c1ccc2c(c1)ccc1ccccc12")
7.67
>>> quantitative_readout("c1ccc2cc3ccccc3cc2c1")
7.66
